Attribution: the supplement of paper PMC9262897

Tested on: E. coli TESEC Alr+ wild-type control
TEST_PROTOCOL: growth (OD600 after 10 h); higher = more growth (less inhibition)
PARTICULARS: compound 0.1 mM; raw OD600 reference: median of DMSO wells 0.241, cell-free background 0.041
Where a name gives a salt, the structure may show the parent alone.
Answer FALSE if growth is under 0.2, and TRUE if it is 0.2 or more.

Identify whether the reported growth of the following compound is 0.2 or greater: CC(=O)N[C@@H](CC(=O)N[C@@H](CCC(=O)O)C(=O)O)C(=O)O [Spaglumic acid]
TRUE

Identify whether the reported growth of the following compound is 0.2 or greater: COc1cc(C(=O)NS(=O)(=O)c2ccccc2C)ccc1Cc1cn(C)c2ccc(NC(=O)OC3CCCC3)cc12 [Zafirlukast]
FALSE

Identify whether the reported growth of the following compound is 0.2 or greater: CN(C)CCC=C1c2ccccc2C=Cc2ccccc21 [Cyclobenzaprine hydrochloride]
FALSE

Identify whether the reported growth of the following compound is 0.2 or greater: CNc1ncnc2c1ncn2[C@@H]1O[C@H](CO)[C@@H](O)[C@H]1O [N6-methyladenosine]
TRUE

Identify whether the reported growth of the following compound is 0.2 or greater: CN(C)[C@@H]1C(=O)C(C(N)=O)=C(O)[C@@]2(O)C(=O)C3=C(O)c4c(O)ccc(Cl)c4[C@@H](O)[C@H]3C[C@@H]12 [Demeclocycline hydrochloride]
FALSE

Identify whether the reported growth of the following compound is 0.2 or greater: Nc1ccc(S(N)(=O)=O)cc1 [Sulfanilamide]
TRUE

Identify whether the reported growth of the following compound is 0.2 or greater: C#C[C@]1(O)CC[C@H]2[C@@H]3CCc4cc(O)ccc4[C@H]3CC[C@@]21C [Ethinylestradiol]
FALSE

====

System: E. coli TESEC Mtb Alr
TEST_PROTOCOL: growth (OD600 after 10 h); higher = more growth (less inhibition)
PARTICULARS: arabinose 10000000 nM; compound 0.1 mM; raw OD600 reference: median of DMSO wells 0.146, cell-free background 0.041
Structures can show the parent of a compound that is named as a salt.
READOUT_TYPE: growth
Write no unit; give the number alone.

Reported growth for COC(=O)Nc1nc2cc([S+]([O-])c3ccccc3)ccc2[nH]1 (centres undefined) [Oxfendazol] : what is it?
0.135

Reported growth for COc1ccc([C@@H]2CC(=O)c3c(O)cc(O[C@@H]4O[C@H](CO[C@@H]5O[C@@H](C)[C@H](O)[C@@H](O)[C@H]5O)[C@@H](O)[C@H](O)[C@H]4O)cc3O2)cc1O [Hesperidin] : what is it?
0.145

Reported growth for CN(CCOc1ccc(CC2SC(=O)NC2=O)cc1)c1ccccn1 (centres undefined) [Rosiglitazone Hydrochloride] : what is it?
0.112

Reported growth for Cc1c(C)c2c(c(C)c1O)CCC(C)(C(=O)O)O2 (centres undefined) [Trolox] : what is it?
0.143

====

Tested on: E. coli TESEC Mtb Alr
TEST_PROTOCOL: growth (OD600 after 10 h); higher = more growth (less inhibition)
PARTICULARS: arabinose 1000000 nM; compound 0.1 mM; raw OD600 reference: median of DMSO wells 0.193, cell-free background 0.041
Structures can show the parent of a compound that is named as a salt.
READOUT_TYPE: growth

Reported growth for CC(C(=O)O)c1ccc(-c2ccccc2)c(F)c1 (stereo not given) [Flurbiprofen] : what is it?
0.161

Reported growth for C[C@]12CC[C@@H]3c4ccc(O)cc4CC[C@H]3[C@@H]1C[C@@H](O)[C@@H]2O [Estriol] : what is it?
0.135

Reported growth for CN(C)CCN(Cc1ccccc1)c1ccccn1 [Tripelennamine hydrochloride] : what is it?
0.184

Reported growth for CCC(=O)O[C@]1(C(=O)CCl)[C@@H](C)C[C@H]2[C@@H]3CCC4=CC(=O)C=C[C@]4(C)[C@@]3(F)[C@@H](O)C[C@@]21C [Clobetasol propionate] : what is it?
0.0968

Reported growth for CC(C)NC[C@H](O)COc1cccc2ccccc12 [(S)-propranolol hydrochloride] : what is it?
0.191

Reported growth for CC[C@H](C)[C@H](N)C1=N[C@H](C(=O)N[C@@H](CC(C)C)C(=O)N[C@H](CCC(=O)O)C(=O)N[C@H](C(=O)N[C@H]2CCCCNC(=O)[C@H](CC(N)=O)NC(=O)[C@@H](CC(=O)O)NC(=O)[C@H](Cc3cnc[nH]3)NC(=O)[C@@H](Cc3ccccc3)NC(=O)[C@H]([C@@H](C)CC)NC(=O)[C@@H](CCCN)NC2=O)[C@@H](C)CC)CS1 [Bacitracin] : what is it?
0.176

Reported growth for CCOC(=O)C1=C(COCCN)NC(C)=C(C(=O)OC)C1c1ccccc1Cl (stereo not given) [Amlodipine] : what is it?
0.0929

Reported growth for CC(COc1ccccc1)NC(C)C(O)c1ccc(O)cc1 (stereo not given) [Isoxsuprine hydrochloride] : what is it?
0.156

Reported growth for COc1cc(C(=O)NC2CCCNC2)cc(OC)c1OC (stereo not given) [Troxipide] : what is it?
0.191

Reported growth for CCCCOc1ccc(OCCCN2CCOCC2)cc1 [Pramoxine hydrochloride] : what is it?
0.146

Reported growth for O=C(OCC(O)CO)c1ccccc1Nc1ccnc2cc(Cl)ccc12 (stereo not given) [Glafenine hydrochloride] : what is it?
0.102

Reported growth for NC[C@H]1O[C@H](O[C@H]2[C@H](O)[C@@H](O[C@H]3O[C@H](CO)[C@@H](O)[C@H](N)[C@H]3O)[C@H](N)C[C@@H]2N)[C@H](N)C[C@@H]1O [Tobramycin] : what is it?
0.0391

Reported growth for CCSc1ccc2c(c1)N(CCCN1CCN(C)CC1)c1ccccc1S2 [Thiethylperazine dimalate] : what is it?
0.0399

Reported growth for CC(CCc1ccc(O)cc1)NCCc1ccc(O)c(O)c1 (stereo not given) [Dobutamine hydrochloride] : what is it?
0.116

Reported growth for Cc1c(N(C)C)c(=O)n(-c2ccccc2)n1C [Amidopyrine] : what is it?
0.184
